subjectOfTest: natural human Fc region prepared by papain digestion of human monoclonal IgG (Chugai Pharmaceutical Co., Ltd.) (human)
assayProcedure: SPR Biacore T100, Fc immobilized on CM5, polypeptide as analyte
Below: a set of entries, each annotated with reported Kd.

{"binder": "p17_W48A (designed binder) GPGISAFSPGRGVYDPETGTWYDAAWHLGELVWATYYDPETGTWEPDAQRMLGQ", "Kd": "200 nM"}
{"binder": "p17_D47A (designed binder) GPGISAFSPGRGVYDPETGTWYDAAWHLGELVWATYYDPETGTWEPAWQRMLGQ", "Kd": "45 nM"}
{"binder": "p17_M51A (designed binder) GPGISAFSPGRGVYDPETGTWYDAAWHLGELVWATYYDPETGTWEPDWQRALGQ", "Kd": "180 nM"}
{"binder": "p17_P46A (designed binder) GPGISAFSPGRGVYDPETGTWYDAAWHLGELVWATYYDPETGTWEADWQRMLGQ", "Kd": "5.6 nM"}
{"binder": "p17_R50A (designed binder) GPGISAFSPGRGVYDPETGTWYDAAWHLGELVWATYYDPETGTWEPDWQAMLGQ", "Kd": "7.8 nM"}
